Source: paper PMC12434091

Entries and their measured pEC50 follow.
Molecular target: Toll-like receptor 4 (TLR4) (Homo sapiens, UniProt O00206)
Construct: HA-TLR4-NLuc and HA-TLR4-Venus (C-terminal tags); with MD2 and CD14 (co-expressed; not required)
Sequence (O00206 24-839): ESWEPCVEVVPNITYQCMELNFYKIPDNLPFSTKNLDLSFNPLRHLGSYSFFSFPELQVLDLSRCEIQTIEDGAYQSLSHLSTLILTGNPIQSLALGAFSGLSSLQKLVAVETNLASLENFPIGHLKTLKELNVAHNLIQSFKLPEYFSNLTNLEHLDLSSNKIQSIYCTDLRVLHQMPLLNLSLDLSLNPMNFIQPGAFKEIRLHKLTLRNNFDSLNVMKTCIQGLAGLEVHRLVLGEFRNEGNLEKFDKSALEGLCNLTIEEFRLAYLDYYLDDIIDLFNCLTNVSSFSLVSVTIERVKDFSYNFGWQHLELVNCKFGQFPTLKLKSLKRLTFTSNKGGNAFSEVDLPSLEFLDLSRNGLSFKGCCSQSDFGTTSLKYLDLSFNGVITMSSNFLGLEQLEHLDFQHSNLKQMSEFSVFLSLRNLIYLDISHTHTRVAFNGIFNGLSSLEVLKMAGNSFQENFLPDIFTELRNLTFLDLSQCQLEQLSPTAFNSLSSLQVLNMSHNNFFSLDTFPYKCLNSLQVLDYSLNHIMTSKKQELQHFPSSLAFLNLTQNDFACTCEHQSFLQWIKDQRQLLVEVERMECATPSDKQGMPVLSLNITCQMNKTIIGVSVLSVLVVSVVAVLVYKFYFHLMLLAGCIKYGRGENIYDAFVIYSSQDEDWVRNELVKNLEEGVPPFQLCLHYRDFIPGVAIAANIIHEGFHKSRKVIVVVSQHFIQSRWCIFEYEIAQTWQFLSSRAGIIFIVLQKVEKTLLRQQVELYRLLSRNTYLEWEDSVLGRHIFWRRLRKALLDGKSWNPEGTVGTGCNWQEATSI
Sequence (Q9Y6Y9 19-160 partner): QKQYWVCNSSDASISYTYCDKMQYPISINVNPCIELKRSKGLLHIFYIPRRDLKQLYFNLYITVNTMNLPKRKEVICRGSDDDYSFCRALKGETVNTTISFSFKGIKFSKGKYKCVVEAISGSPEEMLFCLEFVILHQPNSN
Sequence (P08571 20-345 partner): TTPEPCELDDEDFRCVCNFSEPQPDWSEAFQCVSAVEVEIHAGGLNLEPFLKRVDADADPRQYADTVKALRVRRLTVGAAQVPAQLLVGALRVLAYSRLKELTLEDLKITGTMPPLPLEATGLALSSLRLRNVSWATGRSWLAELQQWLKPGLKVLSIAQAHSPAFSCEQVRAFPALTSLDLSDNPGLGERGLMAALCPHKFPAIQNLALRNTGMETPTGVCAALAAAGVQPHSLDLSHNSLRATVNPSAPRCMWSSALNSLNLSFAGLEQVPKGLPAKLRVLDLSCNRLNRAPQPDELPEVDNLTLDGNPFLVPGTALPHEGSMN
Test: BRET TLR4-TLR4 proximity assay (iTLR4) in transfected HEK293 cells
pEC50 here is simply -log10 of the concentration when that concentration is written in mol/L.

The molecule identified as C=CCN1CC[C@@]23c4c5ccc(O)c4O[C@@H]2C(=O)CC[C@]3(O)[C@@H]1C5 [(+)-naloxone] registered its pEC50 at 5.38

The molecule identified as C=CCN1CC[C@]23c4c5ccc(O)c4O[C@H]2C(=O)CC[C@@]3(O)[C@H]1C5 [(-)-naloxone] registered its pEC50 at 5.52
